# assayNotes: RP, Waters ACQUITY Premier BEH C18, 100 × 2.1 mm, 1.7 µm, 40 °C, 0.3 to 0.4 mL/min, estimated dead time 0.73 min; A: water + 0.1% formic acid; B: acetonitrile + 0.1% formic acid; gradient (min/%B) 0/0.5 0.1/0.5 10/80 10.1/99.5 12/0.5 12.1/0.5 14.5/0.5
# measurementContext: stereoisomer not certain
Catalogue of LC retention time values

Reference set, count: 2
molecule	LC retention time
CS(=O)CCCN=C=S (stereo not given) [3-METHYLSULFINYLPROPYL ISOTHIOCYANATE]	4.1 min
COc1ccc(C2CC(=O)c3c(O)cc(O)cc3O2)cc1O (stereo not given) [HESPERETIN]	6.26 min

Q. Dear colleague, I am looking for the recorded LC retention time of the following molecule: OCC(Cc1cccc(O)c1)C(CO)Cc1cccc(O)c1 (stereo not given) [ENTERODIOL]
A. 5.95 min

Q. Dear colleague, I am looking for the recorded LC retention time of the following molecule: Nc1ncnc2c1ncn2C1OC2COP(=O)(O)OC2C1O (stereo not given) [CYCLIC AMP]
A. 3.35 min

Q. Dear colleague, I am looking for the recorded LC retention time of the following molecule: NC(N)=NCCCC(=O)O [4-GUANIDINOBUTANOATE]
A. 1.35 min

Q. Dear colleague, I am looking for the recorded LC retention time of the following molecule: COC(=O)c1ccc(O)cc1 [METHYLPARABEN]
A. 5.79 min

Q. Dear colleague, I am looking for the recorded LC retention time of the following molecule: Nc1ncnc2c1ncn2C1OC(CO)C(O)C1O (stereo not given) [ADENOSINE]
A. 3.28 min

Q. Dear colleague, I am looking for the recorded LC retention time of the following molecule: Cn1c(=O)c2[nH]cnc2n(C)c1=O [THEOPHYLLINE]
A. 3.96 min

Q. Dear colleague, I am looking for the recorded LC retention time of the following molecule: O=c1ccc2cc(OC3OC(CO)C(O)C(O)C3O)c(O)cc2o1 (stereo not given) [AESCULIN]
A. 3.14 min

Q. Dear colleague, I am looking for the recorded LC retention time of the following molecule: Oc1ccc(C2COc3cc(O)ccc3C2)cc1 (stereo not given) [EQUOL]
A. 6.57 min
